- measurementDescription: Transfer into each organ: carotenoid concentration in organs of cynomolgus monkeys (Test Example 3)
- Assay type: in vivo
- experimentalSetup: cynomolgus monkey, in vivo, 50 mg/kg, Concentration in organ: Brain, Hippocampus
- Experimental: As experimental animals, cynomolgus monkeys were used. […] The dose in each administration was calculated based on the latest body weight at each administration time point (the body weight was measured on the day of initiation of acclimation, the day of end of acclimation, the day of initiation of administration, and before administration on day 8 of administration using an electric balance (HP-40K or GP-40K, both of which are manufactured by A&D Company, Limited)). […]

compound	concentration at 10 days
CC1=C(/C=C/C(C)=C/C=C/C(C)=C/C=C/C=C(C)/C=C/C=C(C)/C=C/C2=C(C)C(=O)C(O)CC2(C)C)C(C)(C)CC(O)C1=O (stereo not drawn) [astaxanthin, 3,3′-dihydroxy-β,β-carotene-4,4′-dione]	7.1 ng/g

###

- measurementDescription: Transfer into each organ: carotenoid concentration in organs of cynomolgus monkeys (Test Example 3)
- Type: in vivo
- experimentalSetup: cynomolgus monkey, in vivo, 50 mg/kg, Concentration in organ: Spleen
readoutType: concentration at 10 days (ng/g)

molecule	displayUnit	reportedValue
CC1=C(/C=C/C(C)=C/C=C/C(C)=C/C=C/C=C(C)/C=C/C=C(C)/C=C/C2=C(C)C(=O)C(O)CC2(C)C)C(C)(C)CC(O)C1=O (stereo not drawn) [astaxanthin, 3,3′-dihydroxy-β,β-carotene-4,4′-dione]	ng/g	88.8

###

Items are presented alongside their recorded concentration at 10 days.
- measurementDescription: Transfer into each organ: carotenoid concentration in organs of mice (Test Example 1)
- Type: in vivo, ICR strain mice
- experimentalSetup: ICR, mouse, kidney, po, 50 mg/kg orally once daily for 10 days, after last administration, mean, read-out: Concentration in organ: Kidney

compound	concentration at 10 days
CC1=C(/C=C/C(C)=C/C=C/C(C)=C/C=C/C=C(C)/C=C/C=C(C)/C=C/C2=C(C)C(=O)C(O)CC2(C)C)C(C)(C)CC(O)C1 (stereo not drawn) [adonixanthin, 3,3′-dihydroxy-β,β-caroten-4-one]	774 ng/g
CC1=C(/C=C/C(C)=C/C=C/C(C)=C/C=C/C=C(C)/C=C/C=C(C)/C=C/C2=C(C)C(=O)C(O)CC2(C)C)C(C)(C)CC(O)C1=O (stereo not drawn) [astaxanthin, 3,3′-dihydroxy-β,β-carotene-4,4′-dione]	84.6 ng/g

###

- measurementDescription: Transfer into each organ: carotenoid concentration in organs of cynomolgus monkeys (Test Example 3)
- Assay type: in vivo
- experimentalSetup: cynomolgus monkey, heart, oral, 50 mg/kg, 50 mg/kg intragastric once daily for 10 days, after last administration, read-out: Concentration in organ: Heart

compound	concentration at 10 days, ng/g
CC1=C(/C=C/C(C)=C/C=C/C(C)=C/C=C/C=C(C)/C=C/C=C(C)/C=C/C2=C(C)C(=O)C(O)CC2(C)C)C(C)(C)CC(O)C1 (stereo not drawn) [adonixanthin, 3,3′-dihydroxy-β,β-caroten-4-one]	305

###

- measurementDescription: Transfer into each organ: carotenoid concentration in organs of mice (Test Example 1)
- Type: in vivo, ICR strain mice
- experimentalSetup: ICR, mouse, heart, po, 50 mg/kg orally once daily for 10 days, after last administration, mean, read-out: Concentration in organ: Heart
Items are presented alongside their recorded concentration at 10 days.
readoutType: concentration at 10 days

compound	readoutType	reportedValue
CC1=C(/C=C/C(C)=C/C=C/C(C)=C/C=C/C=C(C)/C=C/C=C(C)/C=C/C2=C(C)C(=O)C(O)CC2(C)C)C(C)(C)CC(O)C1=O (stereo not drawn) [astaxanthin, 3,3′-dihydroxy-β,β-carotene-4,4′-dione]	concentration at 10 days	124 ng/g
CC1=C(/C=C/C(C)=C/C=C/C(C)=C/C=C/C=C(C)/C=C/C=C(C)/C=C/C2=C(C)C(=O)C(O)CC2(C)C)C(C)(C)CC(O)C1 (stereo not drawn) [adonixanthin, 3,3′-dihydroxy-β,β-caroten-4-one]	concentration at 10 days	141 ng/g

###

- measurementDescription: Transfer into each organ: carotenoid concentration in organs of cynomolgus monkeys (Test Example 3)
- Format: in vivo
- experimentalSetup: cynomolgus monkey, brain, striatum putamen, oral, 50 mg/kg, 50 mg/kg intragastric once daily for 10 days, after last administration, read-out: Concentration in organ: Brain, Striatum Putamen

molecule	concentration at 10 days
CC1=C(/C=C/C(C)=C/C=C/C(C)=C/C=C/C=C(C)/C=C/C=C(C)/C=C/C2=C(C)C(=O)C(O)CC2(C)C)C(C)(C)CC(O)C1 (stereo not drawn) [adonixanthin, 3,3′-dihydroxy-β,β-caroten-4-one]	42.1 ng/g

###

- measurementDescription: Transfer into each organ: carotenoid concentration in organs of mice (Test Example 1)
- Assay type: in vivo, ICR strain mice
- experimentalSetup: ICR, mouse, liver, po, 50 mg/kg orally once daily for 10 days, after last administration, mean, read-out: Concentration in organ: Liver
readoutType: concentration at 10 days (ng/g)

compound	readoutType	reportedValue
CC1=C(/C=C/C(C)=C/C=C/C(C)=C/C=C/C=C(C)/C=C/C=C(C)/C=C/C2=C(C)C(=O)C(O)CC2(C)C)C(C)(C)CC(O)C1=O (stereo not drawn) [astaxanthin, 3,3′-dihydroxy-β,β-carotene-4,4′-dione]	concentration at 10 days	109
CC1=C(/C=C/C(C)=C/C=C/C(C)=C/C=C/C=C(C)/C=C/C=C(C)/C=C/C2=C(C)C(=O)C(O)CC2(C)C)C(C)(C)CC(O)C1 (stereo not drawn) [adonixanthin, 3,3′-dihydroxy-β,β-caroten-4-one]	concentration at 10 days	1930

###

- measurementDescription: Transfer into each organ: carotenoid concentration in organs of cynomolgus monkeys (Test Example 3)
- Format: in vivo
- experimentalSetup: cynomolgus monkey, in vivo, 50 mg/kg, Concentration in organ: Brain, Striatum Putamen
readoutType: concentration at 10 days (ng/g)

molecule	reportedValue
CC1=C(/C=C/C(C)=C/C=C/C(C)=C/C=C/C=C(C)/C=C/C=C(C)/C=C/C2=C(C)C(=O)C(O)CC2(C)C)C(C)(C)CC(O)C1=O (stereo not drawn) [astaxanthin, 3,3′-dihydroxy-β,β-carotene-4,4′-dione]	5

###

- measurementDescription: Transfer into each organ: carotenoid concentration in organs of cynomolgus monkeys (Test Example 3)
- Format: in vivo
- experimentalSetup: cynomolgus monkey, kidney (left), oral, 50 mg/kg, 50 mg/kg intragastric once daily for 10 days, after last administration, read-out: Concentration in organ: Kidney (left)

compound	concentration at 10 days, ng/g
CC1=C(/C=C/C(C)=C/C=C/C(C)=C/C=C/C=C(C)/C=C/C=C(C)/C=C/C2=C(C)C(=O)C(O)CC2(C)C)C(C)(C)CC(O)C1 (stereo not drawn) [adonixanthin, 3,3′-dihydroxy-β,β-caroten-4-one]	1600

###

- measurementDescription: Transfer into each organ: carotenoid concentration in organs of cynomolgus monkeys (Test Example 3)
- Assay type: in vivo
- experimentalSetup: cynomolgus monkey, spleen, oral, 50 mg/kg, 50 mg/kg intragastric once daily for 10 days, after last administration, read-out: Concentration in organ: Spleen
- Experimental: As experimental animals, cynomolgus monkeys were used. […] The dose in each administration was calculated based on the latest body weight at each administration time point (the body weight was measured on the day of initiation of acclimation, the day of end of acclimation, the day of initiation of administration, and before administration on day 8 of administration using an electric balance (HP-40K or GP-40K, both of which are manufactured by A&D Company, Limited)). […]

compound	displayUnit	concentration at 10 days
CC1=C(/C=C/C(C)=C/C=C/C(C)=C/C=C/C=C(C)/C=C/C=C(C)/C=C/C2=C(C)C(=O)C(O)CC2(C)C)C(C)(C)CC(O)C1 (stereo not drawn) [adonixanthin, 3,3′-dihydroxy-β,β-caroten-4-one]	ng/g	5280

###

- measurementDescription: Transfer into each organ: carotenoid concentration in organs of cynomolgus monkeys (Test Example 3)
- Assay type: in vivo
- experimentalSetup: cynomolgus monkey, brain, striatum caudate nucleus, oral, 50 mg/kg, 50 mg/kg intragastric once daily for 10 days, after last administration, read-out: Concentration in organ: Brain, Striatum Caudate nucleus
readoutType: concentration at 10 days (ng/g)

compound	displayUnit	reportedValue
CC1=C(/C=C/C(C)=C/C=C/C(C)=C/C=C/C=C(C)/C=C/C=C(C)/C=C/C2=C(C)C(=O)C(O)CC2(C)C)C(C)(C)CC(O)C1 (stereo not drawn) [adonixanthin, 3,3′-dihydroxy-β,β-caroten-4-one]	ng/g	59.8

###

- measurementDescription: Transfer into each organ: carotenoid concentration in organs of mice (Test Example 1)
- Format: in vivo, ICR strain mice
- experimentalSetup: ICR, mouse, lung, po, 50 mg/kg orally once daily for 10 days, after last administration, mean, read-out: Concentration in organ: Lung
Items are presented alongside their recorded concentration at 10 days.

compound	concentration at 10 days (ng/g)
CC1=C(/C=C/C(C)=C/C=C/C(C)=C/C=C/C=C(C)/C=C/C=C(C)/C=C/C2=C(C)C(=O)C(O)CC2(C)C)C(C)(C)CC(O)C1=O (stereo not drawn) [astaxanthin, 3,3′-dihydroxy-β,β-carotene-4,4′-dione]	106
CC1=C(/C=C/C(C)=C/C=C/C(C)=C/C=C/C=C(C)/C=C/C=C(C)/C=C/C2=C(C)C(=O)C(O)CC2(C)C)C(C)(C)CC(O)C1 (stereo not drawn) [adonixanthin, 3,3′-dihydroxy-β,β-caroten-4-one]	1940
